# Assayed Target: hMC4-R (Homo sapiens (Human))
# Sequence (P32245 whole entry): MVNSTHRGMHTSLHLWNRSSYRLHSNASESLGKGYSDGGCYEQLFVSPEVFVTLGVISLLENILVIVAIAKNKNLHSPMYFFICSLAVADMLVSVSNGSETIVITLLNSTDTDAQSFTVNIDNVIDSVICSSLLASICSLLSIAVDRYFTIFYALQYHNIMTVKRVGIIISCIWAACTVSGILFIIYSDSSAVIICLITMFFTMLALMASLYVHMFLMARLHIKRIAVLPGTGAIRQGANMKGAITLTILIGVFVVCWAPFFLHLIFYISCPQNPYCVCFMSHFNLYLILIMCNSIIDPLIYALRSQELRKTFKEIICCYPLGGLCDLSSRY
# Test Method Notes: High and low density hMC4-R functional assay (cAMP, HEK293-T-REx-MC4-R cells)
# Format: cell-based
# Assay Conditions: 10 ng/mL Doxycycline (high density hMC4-R system)
Recorded Endpoint: EC50 (pM)
Write the value in pM as a bare number.

Record `CC(=O)N[C@@H](CCCNC(=N)N)C(=O)N[C@H]1CCC(=O)NCCC[C@@H](C(N)=O)NC(=O)[C@H](Cc2c[nH]c3ccccc23)NC(=O)[C@H](CCCNC(=N)N)NC(=O)[C@@H](Cc2ccccc2C)NC(=O)[C@H](CCC(N)=O)NC1=O` / hMC4-R (Homo sapiens (Human)), EC50 recorded as 60

Fill in: hMC4-R (Homo sapiens (Human)) EC50 for `CC(=O)N[C@@H](CCCNC(=N)N)C(=O)N[C@H]1CCC(=O)NCCC[C@@H](C(N)=O)NC(=O)[C@H](Cc2c[nH]c3ccccc23)NC(=O)[C@H](CCCNC(=N)N)NC(=O)[C@@H](Cc2ccc(F)cc2)NC(=O)[C@H](CO)NC1=O` = 85

GET /values?item= `CC(=O)N[C@@H](CCCNC(=N)N)C(=O)N[C@H]1CCC(=O)NCCC[C@@H](C(N)=O)NC(=O)[C@H](Cc2c[nH]c3ccccc23)NC(=O)[C@H](CCCNC(=N)N)NC(=O)[C@@H](Cc2ccccc2Cl)NC(=O)[C@H](CN)NC1=O` &system= hMC4-R (Homo sapiens (Human)) returns EC50: 470

Form field EC50 for item `CC(=O)N[C@@H](CCCNC(=N)N)C(=O)N[C@H]1CCC(=O)NCCC[C@@H](C(N)=O)NC(=O)[C@H](Cc2c[nH]c3ccccc23)NC(=O)[C@H](CCCNC(=N)N)NC(=O)[C@@H](Cc2cc(F)cc(F)c2)NC(=O)[C@H](CCN)NC1=O` on hMC4-R (Homo sapiens (Human)): 120

* * *

# Assayed Target: hMC4-R (Homo sapiens (Human))
# Test Method Notes: High and low density hMC4-R functional assay (cAMP, HEK293-T-REx-MC4-R cells)
# Type: cell-based
# Assay Conditions: 0.1 ng/mL Doxycycline (low density hMC4-R system)
Recorded Endpoint: EC50 (nM)
Give the quantity in nM, number only.

Note to self: EC50 recorded for CC(=O)N[C@@H](CCCNC(=N)N)C(=O)N[C@H]1CCC(=O)NCCC[C@@H](C(N)=O)NC(=O)[C@H](Cc2c[nH]c3ccccc23)NC(=O)[C@H](CCCNC(=N)N)NC(=O)[C@@H](Cc2ccccc2Cl)NC(=O)[C@H](COCc2ccccc2)NC1=O [Example 47] was 0.31

For reference, reported EC50 for CC(=O)N[C@@H](CCCNC(=N)N)C(=O)N[C@H]1CCC(=O)NCCC[C@@H](C(N)=O)NC(=O)[C@H](Cc2c[nH]c3ccccc23)NC(=O)[C@H](CCCNC(=N)N)NC(=O)[C@@H](Cc2cccc(C(F)(F)F)c2)NC(=O)[C@H](CCN)NC1=O [Example 14] stands at 8

CC(=O)N[C@@H](CCCNC(=N)N)C(=O)N[C@H]1CCC(=O)NCCC[C@@H](C(N)=O)NC(=O)[C@H](Cc2c[nH]c3ccccc23)NC(=O)[C@H](CCCNC(=N)N)NC(=O)[C@@H](Cc2ccccc2Cl)NC(=O)[C@H](CN)NC1=O [Example 62] yielded EC50 of 16

Data point: CC(=O)N[C@@H](CCCNC(=N)N)C(=O)N[C@H]1CCC(=O)NCCC[C@@H](C(N)=O)NC(=O)[C@H](Cc2c[nH]c3ccccc23)NC(=O)[C@H](CCCNC(=N)N)NC(=O)[C@@H](Cc2cc(F)cc(F)c2)NC(=O)[C@H](CC(N)=O)NC1=O [Example 76] ; EC50 = 3

EC50 reading for CC(=O)N[C@@H](CCCNC(=N)N)C(=O)N[C@H]1CCC(=O)NCCC[C@@H](C(N)=O)NC(=O)[C@H](Cc2c[nH]c3ccccc23)NC(=O)[C@H](CCCNC(=N)N)NC(=O)[C@@H](Cc2ccc(Cl)cc2)NC(=O)[C@H](CCN)NC1=O [Example 3] : 0.07

Record CC(=O)N[C@@H](CCCNC(=N)N)C(=O)N[C@H]1CCC(=O)NCCC[C@@H](C(N)=O)NC(=O)[C@H](Cc2c[nH]c3ccccc23)NC(=O)[C@H](CCCNC(=N)N)NC(=O)[C@@H](Cc2ccccc2F)NC(=O)[C@H](CO)NC1=O [Example 58] , field EC50: 5

EC50 measured on CC(=O)N[C@@H](CCCNC(=N)N)C(=O)N[C@H]1CCCNC(=O)CC[C@@H](C(N)=O)NC(=O)[C@H](Cc2c[nH]c3ccccc23)NC(=O)[C@H](CCCNC(=N)N)NC(=O)[C@@H](Cc2cc(F)c(F)c(F)c2)NC(=O)[C@H](CC(N)=O)NC1=O [Example 96] = 2

Measured EC50, CC(=O)N[C@@H](CCCNC(=N)N)C(=O)N[C@H]1CCC(=O)NCCC[C@@H](C(N)=O)NC(=O)[C@H](Cc2c[nH]c3ccccc23)NC(=O)[C@H](CCCNC(=N)N)NC(=O)[C@@H](Cc2ccccc2C(F)(F)F)NC(=O)[C@H](CCN)NC1=O [Example 13] : 0.125
